normalised inhibition (eCFP-eYFP dual reporter) values for the substances below.
# targetUnderTest: SOST
# measurementDescription: reporter assay of Huesken 2005; further: test concentration or dose not given here
# experimentalParameters: siRNA
Oligonucleotides are given in HELM: sugar(base)linkage, 5' to 3'; d 2'-deoxyribose, r ribose, m 2'-O-methylribose, p phosphate. ss, as = sense and antisense strand

Solved cases below.
RNA1{r(A)p.r(A)p.r(A)p.r(U)p.r(C)p.r(A)p.r(U)p.r(C)p.r(C)p.r(C)p.r(C)p.r(G)p.r(A)p.r(G)p.r(C)p.r(U)p.r(C)p.r(G)p.r(G)p.d(T)p.d(T)}|RNA2{r(C)p.r(C)p.r(G)p.r(A)p.r(G)p.r(C)p.r(U)p.r(C)p.r(G)p.r(G)p.r(G)p.r(G)p.r(A)p.r(U)p.r(G)p.r(A)p.r(U)p.r(U)p.r(U)p.d(C)p.d(C)}$$$RNA1{StrandType:ss}|RNA2{StrandType:as}$: 49.8%
RNA1{r(A)p.r(C)p.r(C)p.r(G)p.r(G)p.r(A)p.r(G)p.r(C)p.r(U)p.r(G)p.r(G)p.r(A)p.r(G)p.r(A)p.r(A)p.r(C)p.r(A)p.r(A)p.r(C)p.d(T)p.d(T)}|RNA2{r(G)p.r(U)p.r(U)p.r(G)p.r(U)p.r(U)p.r(C)p.r(U)p.r(C)p.r(C)p.r(A)p.r(G)p.r(C)p.r(U)p.r(C)p.r(C)p.r(G)p.r(G)p.r(U)p.d(G)p.d(G)}$$$RNA1{StrandType:ss}|RNA2{StrandType:as}$: 83.3%

Now for another entry.
Lab note: measured normalised inhibition (eCFP-eYFP dual reporter) of RNA1{r(C)p.r(C)p.r(A)p.r(C)p.r(C)p.r(G)p.r(G)p.r(A)p.r(G)p.r(C)p.r(U)p.r(G)p.r(G)p.r(A)p.r(G)p.r(A)p.r(A)p.r(C)p.r(A)p.d(T)p.d(T)}|RNA2{r(U)p.r(G)p.r(U)p.r(U)p.r(C)p.r(U)p.r(C)p.r(C)p.r(A)p.r(G)p.r(C)p.r(U)p.r(C)p.r(C)p.r(G)p.r(G)p.r(U)p.r(G)p.r(G)p.d(A)p.d(G)}$$$RNA1{StrandType:ss}|RNA2{StrandType:as}$ was 86.7%

###

# targetUnderTest: UBE2H
# measurementDescription: reporter assay of Huesken 2005
# experimentalParameters: siRNA
Oligonucleotides are written 5' to 3', each unit as a sugar letter and its base; * is a phosphorothioate linkage, no mark a phosphodiester; rarer units and linkages stand in square brackets, end groups in braces. Plain capitals give the bases only. d = 2'-deoxy (DNA); r = 2'-OH (RNA)
outcomeMeasure: normalised inhibition (eCFP-eYFP dual reporter) (%)
Give the value in % but do not write % after it.

Solved cases below.
sense rCrGrArGrArGrUrArArArCrArUrGrArGrGrUrUdTdT / antisense rArArCrCrUrCrArUrGrUrUrUrArCrUrCrUrCrGdAdT: 98
sense rArUrUrGrGrCrCrUrArUrCrCrUrArArCrCrCrCdTdT / antisense rGrGrGrGrUrUrArGrGrArUrArGrGrCrCrArArUdAdA: 36.2
sense rArGrUrGrGrArCrCrUrArCrCrUrGrArUrArArAdTdT / antisense rUrUrUrArUrCrArGrGrUrArGrGrUrCrCrArCrUdCdT: 108
sense rGrArArGrArArUrArCrArArGrCrArGrArArArAdTdT / antisense rUrUrUrUrCrUrGrCrUrUrGrUrArUrUrCrUrUrCdTdG: 95.1
sense rCrCrGrArCrCrArGrArArGrArArUrArCrArArGdTdT / antisense rCrUrUrGrUrArUrUrCrUrUrCrUrGrGrUrCrGrGdTdG: 86.4

Lab note: measured normalised inhibition (eCFP-eYFP dual reporter) of sense rArArArArUrUrArArArGrArGrUrArCrArUrCrCdTdT / antisense rGrGrArUrGrUrArCrUrCrUrUrUrArArUrUrUrUdCdT was 70.5

###

# targetUnderTest: TMEM63B
# measurementDescription: reporter assay of Huesken 2005
# experimentalParameters: siRNA
Oligonucleotides are given in HELM: sugar(base)linkage, 5' to 3'; d 2'-deoxyribose, r ribose, m 2'-O-methylribose, p phosphate. ss, as = sense and antisense strand
outcomeMeasure: normalised inhibition (eCFP-eYFP dual reporter)
Please append the unit to your numeric answer.

RNA1{r(U)p.r(C)p.r(A)p.r(C)p.r(C)p.r(U)p.r(G)p.r(C)p.r(C)p.r(C)p.r(C)p.r(A)p.r(U)p.r(C)p.r(A)p.r(U)p.r(C)p.r(G)p.r(U)p.d(T)p.d(T)}|RNA2{r(A)p.r(C)p.r(G)p.r(A)p.r(U)p.r(G)p.r(A)p.r(U)p.r(G)p.r(G)p.r(G)p.r(G)p.r(C)p.r(A)p.r(G)p.r(G)p.r(U)p.r(G)p.r(A)p.d(T)p.d(A)}$$$RNA1{StrandType:ss}|RNA2{StrandType:as}$: 73%

Assay TMEM63B, sample RNA1{r(C)p.r(U)p.r(C)p.r(U)p.r(C)p.r(C)p.r(G)p.r(U)p.r(A)p.r(G)p.r(G)p.r(C)p.r(A)p.r(U)p.r(C)p.r(G)p.r(U)p.r(G)p.r(C)p.d(T)p.d(T)}|RNA2{r(G)p.r(C)p.r(A)p.r(C)p.r(G)p.r(A)p.r(U)p.r(G)p.r(C)p.r(C)p.r(U)p.r(A)p.r(C)p.r(G)p.r(G)p.r(A)p.r(G)p.r(A)p.r(G)p.d(G)p.d(A)}$$$RNA1{StrandType:ss}|RNA2{StrandType:as}$ , normalised inhibition (eCFP-eYFP dual reporter) read: 75.8%

###

# targetUnderTest: CDC34
# measurementDescription: reporter assay of Huesken 2005
# experimentalParameters: siRNA
Oligonucleotides are given in HELM: sugar(base)linkage, 5' to 3'; d 2'-deoxyribose, r ribose, m 2'-O-methylribose, p phosphate. ss, as = sense and antisense strand
normalised inhibition (eCFP-eYFP dual reporter) values for the substances below.
Give the value in % but do not write % after it.

RNA1{r(G)p.r(A)p.r(C)p.r(U)p.r(A)p.r(C)p.r(C)p.r(C)p.r(A)p.r(U)p.r(A)p.r(C)p.r(U)p.r(C)p.r(U)p.r(C)p.r(C)p.r(A)p.r(C)p.d(T)p.d(T)}|RNA2{r(G)p.r(U)p.r(G)p.r(G)p.r(A)p.r(G)p.r(A)p.r(G)p.r(U)p.r(A)p.r(U)p.r(G)p.r(G)p.r(G)p.r(U)p.r(A)p.r(G)p.r(U)p.r(C)p.d(G)p.d(A)}$$$RNA1{StrandType:ss}|RNA2{StrandType:as}$: 65.9

Lab note: measured normalised inhibition (eCFP-eYFP dual reporter) of RNA1{r(G)p.r(A)p.r(C)p.r(G)p.r(A)p.r(G)p.r(G)p.r(G)p.r(C)p.r(U)p.r(C)p.r(A)p.r(G)p.r(A)p.r(C)p.r(C)p.r(U)p.r(C)p.r(U)p.d(T)p.d(T)}|RNA2{r(A)p.r(G)p.r(A)p.r(G)p.r(G)p.r(U)p.r(C)p.r(U)p.r(G)p.r(A)p.r(G)p.r(C)p.r(C)p.r(C)p.r(U)p.r(C)p.r(G)p.r(U)p.r(C)p.d(G)p.d(G)}$$$RNA1{StrandType:ss}|RNA2{StrandType:as}$ was 51.7

###

# targetUnderTest: P2RX3
# measurementDescription: reporter assay of Huesken 2005
# experimentalParameters: siRNA
Oligonucleotides are written 5' to 3', each unit as a sugar letter and its base; * is a phosphorothioate linkage, no mark a phosphodiester; rarer units and linkages stand in square brackets, end groups in braces. Plain capitals give the bases only. d = 2'-deoxy (DNA); r = 2'-OH (RNA)
outcomeMeasure: normalised inhibition (eCFP-eYFP dual reporter) (%)
Give the value in % but do not write % after it.

sense rUrCrCrUrGrCrUrCrArArCrUrUrCrCrUrCrArAdTdT / antisense rUrUrGrArGrGrArArGrUrUrGrArGrCrArGrGrAdTdG: 90.3
sense rCrUrGrArUrUrArCrGrUrGrArCrGrCrCrArCrCdTdT / antisense rGrGrUrGrGrCrGrUrCrArCrGrUrArArUrCrArGdAdC: 50
sense rGrArArArCrGrCrCrCrArUrCrArUrGrArUrGrGdTdT / antisense rCrCrArUrCrArUrGrArUrGrGrGrCrGrUrUrUrCdCdA: 48.7
sense rUrArArCrCrArArGrGrUrGrArArGrGrGrCrUrCdTdT / antisense rGrArGrCrCrCrUrUrCrArCrCrUrUrGrGrUrUrAdCdC: 16.2
sense rGrGrGrCrArUrUrArArGrArUrCrGrGrCrUrGrGdTdT / antisense rCrCrArGrCrCrGrArUrCrUrUrArArUrGrCrCrCdAdG: 59.7

Now for another entry.
Lab note: measured normalised inhibition (eCFP-eYFP dual reporter) of sense rUrGrGrUrGrCrCrCrCrArCrGrGrArGrGrUrGrGdTdT / antisense rCrCrArCrCrUrCrCrGrUrGrGrGrGrCrArCrCrAdGdC was 13.5
